Reference source for all entries: patent US20130089544A1

Biological target: human ErbB2, full length, on cells (human, UniProt P04626 23-1255)
Test: cell-based or functional assay
// values below are reported % Inhibition @10 µg/ml, Heregulin-induced MCF7 cell proliferation
API: value field is a number in %; no unit string.

Example entries begin here.
monoclonal antibody 1.20 (antibody, V domains shown, Fully human IgG (gamma/kappa) from a XenoMouse XM3B-3 hybridoma; constant regions not tied to it; also called 1.20.1; 1.19) VH: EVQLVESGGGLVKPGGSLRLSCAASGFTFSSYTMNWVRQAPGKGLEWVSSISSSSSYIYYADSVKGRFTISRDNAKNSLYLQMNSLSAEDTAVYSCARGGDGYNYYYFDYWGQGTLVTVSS VL: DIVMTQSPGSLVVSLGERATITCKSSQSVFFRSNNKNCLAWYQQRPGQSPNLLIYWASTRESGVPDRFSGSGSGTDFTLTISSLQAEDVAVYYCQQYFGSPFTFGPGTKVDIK    100
monoclonal antibody 1.96 (antibody, V domains shown, Fully human IgG (gamma/kappa) from a XenoMouse XM3B-3 hybridoma; constant regions not tied to it) VH: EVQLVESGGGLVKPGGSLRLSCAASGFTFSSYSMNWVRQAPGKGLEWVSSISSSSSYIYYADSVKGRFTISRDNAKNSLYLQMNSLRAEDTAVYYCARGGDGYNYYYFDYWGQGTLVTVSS VL: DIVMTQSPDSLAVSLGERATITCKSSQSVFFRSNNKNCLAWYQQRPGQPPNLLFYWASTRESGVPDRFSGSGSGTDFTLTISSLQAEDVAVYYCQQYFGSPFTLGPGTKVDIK    98

The recorded % Inhibition @10 µg/ml, Heregulin-induced MCF7 cell proliferation for entry monoclonal antibody 1.14.1 (antibody, V domains shown, Fully human IgG (gamma/kappa) from a XenoMouse XM3B-3 hybridoma; constant regions not tied to it) VH: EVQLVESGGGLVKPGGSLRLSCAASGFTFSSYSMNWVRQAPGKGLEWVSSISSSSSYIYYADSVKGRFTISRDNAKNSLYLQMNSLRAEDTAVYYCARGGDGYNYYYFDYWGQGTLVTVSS VL: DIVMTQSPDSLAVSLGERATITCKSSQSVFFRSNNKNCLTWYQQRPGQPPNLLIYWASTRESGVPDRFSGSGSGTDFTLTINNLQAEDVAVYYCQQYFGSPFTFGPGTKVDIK equals 96

Looking up monoclonal antibody 1.43 (antibody, V domains shown) VH: EVQLVESGGGLVQPGGSLRLSCAASGFTFSSYWMHWVRQTPGKGLEWVANIKQDGSEKYYVDSVKGRFTISRDNAKNSLHLQMNSLRAEDTAAYYCASFRDYGMDVWGQGTTVTVSS VL: DIQMTQSPSSLSASVGDRVTITCRASQGISNHLAWFQQKPGKAPKSLIYGASSLQTGVPSKFSGSGSGTDFTLTISSLQPEDFASYFCQQYKGYPITFGQGTRLEIK , I found its % Inhibition @10 µg/ml, Heregulin-induced MCF7 cell proliferation recorded as 53
